This collection of values is drawn from ChEMBL document CHEMBL1131478.

Matrix metalloproteinase-9 (Homo sapiens, UniProt P14780): recorded pIC50 for assorted molecules
Sequence (P14780 whole entry): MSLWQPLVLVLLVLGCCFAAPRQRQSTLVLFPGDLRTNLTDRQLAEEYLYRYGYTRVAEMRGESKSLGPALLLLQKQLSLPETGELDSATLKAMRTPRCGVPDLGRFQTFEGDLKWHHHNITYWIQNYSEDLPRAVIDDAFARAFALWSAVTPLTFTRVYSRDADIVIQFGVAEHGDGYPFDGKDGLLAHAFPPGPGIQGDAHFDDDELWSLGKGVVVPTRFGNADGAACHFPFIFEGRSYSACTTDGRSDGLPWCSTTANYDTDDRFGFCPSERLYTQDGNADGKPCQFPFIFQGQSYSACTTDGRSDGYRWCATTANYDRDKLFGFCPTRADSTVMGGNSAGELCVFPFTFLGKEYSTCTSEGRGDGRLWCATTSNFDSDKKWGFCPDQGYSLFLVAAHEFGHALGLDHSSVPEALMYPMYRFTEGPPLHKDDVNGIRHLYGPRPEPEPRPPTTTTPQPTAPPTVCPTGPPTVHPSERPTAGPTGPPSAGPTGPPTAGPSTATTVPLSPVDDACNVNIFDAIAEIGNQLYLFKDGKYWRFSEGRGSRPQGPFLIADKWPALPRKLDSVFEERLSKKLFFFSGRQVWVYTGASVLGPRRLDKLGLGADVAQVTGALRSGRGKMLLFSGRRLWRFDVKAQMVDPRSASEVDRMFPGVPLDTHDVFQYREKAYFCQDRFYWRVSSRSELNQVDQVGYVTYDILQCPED
pIC50: −log10 of the molar value.
REPORTED ENDPOINT: pIC50

Check out these entries, answers already filled in.
[[record]]
smiles_repr = "CC(C)[C@@H](NS(=O)(=O)c1ccc(Oc2ccccc2)cc1)C(=O)NO"
reported_endpoint = "pIC50"
result = 9.27

[[record]]
smiles_repr = "COc1cccc(-c2ccc(S(=O)(=O)N[C@H](Cc3c[nH]c4ccccc34)C(=O)O)cc2)c1"
reported_endpoint = "pIC50"
result = 5.96

[[record]]
smiles_repr = "Cc1ccc(C#Cc2ccc(S(=O)(=O)N[C@H](Cc3c[nH]c4ccccc34)C(=O)O)s2)cc1"
reported_endpoint = "pIC50"
result = 7.64

[[record]]
smiles_repr = "CC(C)[C@@H](NS(=O)(=O)c1ccc(Oc2ccccc2)cc1)C(=O)O"
reported_endpoint = "pIC50"
result = 5.96

[[record]]
smiles_repr = "Cc1ccc(C#Cc2ccc(S(=O)(=O)N[C@@H](C(=O)O)C(C)C)s2)cc1"
reported_endpoint = "pIC50"
result = 7.85

[[record]]
smiles_repr = "O=C(O)[C@@H](Cc1c[nH]c2ccccc12)NS(=O)(=O)c1ccc(C#Cc2ccccc2[N+](=O)[O-])s1"
reported_endpoint = "pIC50"
result = 5.82

[[record]]
smiles_repr = "COc1ccc(C#Cc2ccc(S(=O)(=O)N[C@H](Cc3ccccc3)C(=O)O)s2)cc1"
reported_endpoint = "pIC50"
result = 7.62

[[record]]
smiles_repr = "Cc1ccc(-c2ccc(S(=O)(=O)N[C@H](Cc3c[nH]c4ccccc34)C(=O)O)s2)cc1"
reported_endpoint = "pIC50"
result = 7.21


1: COc1ccc(-c2ccc(S(=O)(=O)N[C@H](Cc3c[nH]c4ccccc34)C(=O)O)cc2)cc1
2: CSc1ccc(-c2ccc(S(=O)(=O)N[C@@H](C(=O)O)C(C)C)cc2)cc1
3: O=C(O)c1ccc(C#Cc2ccc(S(=O)(=O)N[C@H](Cc3c[nH]c4ccccc34)C(=O)O)cc2)cc1
4: Cc1ccc(C#Cc2ccc(S(=O)(=O)N[C@H](Cc3c[nH]c4ccccc34)C(=O)O)cc2)cc1
5: O=C(NO)[C@@H](Cc1ccccc1)NS(=O)(=O)c1ccccc1
Parameters: sort_field (pIC50), sort_dir (desc). Please, when replying, give the labels in the order that was requested.
4, 2, 1, 5, 3

###

biological target: UniProt:P08253
pIC50: −log10 of the molar value.
REPORTED ENDPOINT: pIC50

[[record]]
smiles_repr = "COc1ccc(C#Cc2ccc(S(=O)(=O)N[C@H](Cc3ccccc3)C(=O)O)cc2)cc1"
result = 6.00


1: COc1ccc(-c2ccc(S(=O)(=O)N[C@H](Cc3c[nH]c4ccccc34)C(=O)O)cc2)cc1
2: COc1cccc(-c2ccc(S(=O)(=O)N[C@H](Cc3c[nH]c4ccccc34)C(=O)O)cc2)c1
Given the listed records, identify the one among 1 and 2 with higher pIC50. Please identify the chosen entry by its label.
1

###

72 kDa type IV collagenase (Homo sapiens): recorded IC50 for assorted compounds
Sequence (P08253 whole entry): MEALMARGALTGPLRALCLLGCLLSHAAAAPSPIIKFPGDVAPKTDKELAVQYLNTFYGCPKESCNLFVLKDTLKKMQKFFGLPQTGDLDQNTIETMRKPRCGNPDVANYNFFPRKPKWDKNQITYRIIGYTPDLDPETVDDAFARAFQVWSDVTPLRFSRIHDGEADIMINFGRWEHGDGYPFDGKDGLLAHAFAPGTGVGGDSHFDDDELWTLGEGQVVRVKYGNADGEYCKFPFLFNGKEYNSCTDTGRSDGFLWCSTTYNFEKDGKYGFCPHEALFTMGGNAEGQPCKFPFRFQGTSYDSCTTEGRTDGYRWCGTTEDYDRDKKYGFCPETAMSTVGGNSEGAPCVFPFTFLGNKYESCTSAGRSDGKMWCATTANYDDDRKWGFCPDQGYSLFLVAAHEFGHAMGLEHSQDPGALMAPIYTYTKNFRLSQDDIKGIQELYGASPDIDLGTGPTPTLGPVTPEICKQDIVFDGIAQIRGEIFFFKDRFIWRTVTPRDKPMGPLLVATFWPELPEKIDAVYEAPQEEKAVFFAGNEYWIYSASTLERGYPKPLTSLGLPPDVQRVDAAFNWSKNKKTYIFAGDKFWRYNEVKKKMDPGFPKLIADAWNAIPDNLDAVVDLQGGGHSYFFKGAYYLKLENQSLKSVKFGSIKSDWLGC
REPORTED ENDPOINT: IC50 (nM)

Check out these entries, answers already filled in.
[[record]]
smiles_repr = "CC(C)[C@@H](NS(=O)(=O)c1ccc(NC(=O)c2ccccc2)cc1)C(=O)O"
units_label = "nM"
result = 50

[[record]]
smiles_repr = "O=C(O)[C@@H](Cc1ccccc1)NS(=O)(=O)c1ccc(-c2nnn(-c3ccc(C4CCCCC4)cc3)n2)cc1"
units_label = "nM"
result = 280


P: O=C(NO)[C@@H](Cc1c[nH]c2ccccc12)NS(=O)(=O)c1ccc(-c2ccccc2)cc1
Q: CSc1ccc(-n2nnc(-c3ccc(S(=O)(=O)N[C@@H](C(=O)O)C(C)C)cc3)n2)cc1
Given the listed records, identify the one among P and Q with higher IC50. Please identify the chosen entry by its label.
Q
